system: wild-type ZIKV (Ugandan MR766 strain) in Vero cells; assay: ZIKV cytopathic effect (CPE) inhibition qHTS assay, CellTiter-Glo readout; format: cell-based, Zika virus; details: Zika virus, Vero, read-out: Log AC50 (M) (converted)
Kindly supply the reported AC50 values for the records listed here.
Give a bare numeral; the unit M is implied.

# return recorded AC50 for entry Cc1nc[nH]c1C1CCN(c2nc3cccc4c3n2CCC4=O)CC1
1.84e-05

Give the measured AC50 for CC1(C)CC[C@]2(C(=O)O)CC[C@]3(C)C(=CCC4[C@@]5(C)CC[C@H](O[C@H]6O[C@H](C(=O)O)[C@@H](O)[C@H](O[C@@H]7O[C@H](CO)[C@H](O)[C@H](O)[C@H]7O)[C@H]6O)C(C)(C)C5CC[C@]43C)[C@@H]2C1 (stereo partly drawn) [NCGC00385211-01, Calenduloside G]
1.23e-05

// Input: CCCNc1ccc2ncc(-c3ccc4[nH]ncc4c3)n2n1 . Output its AC50 only.
5.8e-05

Given the molecule CC1=CC(=O)[C@@H](O)[C@@]2(C)C1C[C@H]1OC(=O)[C@H](O)[C@@]3(O)[C@@H](C)[C@@H](O)[C@H](O)C2[C@@]13C (stereo partly drawn) , write its reported AC50.
1.43e-05

Give the reported value of AC50 for this record: Cc1cc(=O)oc2c(C=O)c(O)ccc12
5.8e-05

Look up and report measured AC50 for this entry: C[C@H]1CCC[C@H](O)CCC/C=C/c2cc(O)cc(O)c2C(=O)O1
6.51e-05

Dear colleague, please send me the reported AC50 for COc1cccc(-n2nc(C(=O)O)cc2-c2ccc(C3CCCCC3)c(Cl)c2)c1 when you can.
2.91e-05

Give the reported AC50 for this molecule. CN1CC2CN(c3ccc4oc5ccccc5c(=O)c4c3)CC2C1 (stereo not drawn)
3.17e-05

Entry C[C@@H]1O[C@@H](O[C@H]2[C@H](O[C@H]3[C@H](O)[C@@H](C(=O)O)O[C@@H](O[C@H]4CC[C@@]5(C)C(CC[C@]6(C)C5CC[C@]57OC[C@@]8(CCC(C)(C)CC85)[C@H](O)C[C@]76C)C4(C)C)[C@@H]3O[C@@H]3O[C@H](CO)[C@@H](O[C@@H]4OC[C@@H](O)[C@H](O)[C@H]4O)[C@H](O)[C@H]3O)O[C@H](CO)[C@H](O)[C@@H]2O)[C@H](O)[C@H](O)[C@H]1O (stereo partly drawn) needs its AC50 filled in; supply it.
1.1e-05

Look up and report measured AC50 for this entry: CN1CCC(COc2cnc(-c3cccc(Cn4nc(-c5cccc(C#N)c5)ccc4=O)c3)nc2)CC1
6.51e-05

Input COc1ccc2cc1Oc1ccc(cc1)C[C@H]1c3c(cc4c(c3Oc3cc5c(cc3OC)CCN(C)[C@@H]5C2)OCO4)CCN1C , output reported AC50.
6.51e-05

Name the recorded AC50 of the item COc1ccc(C(O)C(C)OC2OC(CO)C(O)C(O)C2O)cc1 (stereo not drawn) in your answer.
2.02e-05
